This document collects Ki values reported for human NK-2 receptor (Homo sapiens).
Structures can show the parent of a compound that is named as a salt.

compound	Ki
N#CCN1CCC(CCNC(=O)[C@@H](Cc2ccccc2)NC(=O)C2(NC(=O)c3cc4ccccc4s3)CCCC2)CC1 [Example 87, TFA salt]	1.26 nM
O=C(NC1(C(=O)N[C@H](Cc2ccccc2)C(=O)NCCN2CCN(CC3CCOCC3)CC2)CCCC1)c1cc2ccccc2s1 [Example 101, TFA salt]	1.26 nM
Cc1ccc(C[C@@H](NC(=O)C2(NC(=O)c3ccc(-c4ccccc4)cc3)CCCC2)C(=O)N[C@H]2CC[C@@H](C(=O)N[C@H]3CCCC[C@@H]3N)C2)cc1 [Example 16, hydrochloride salt]	0.501 nM
CN(C)[C@H]1CCCC[C@@H]1NC(=O)[C@@H]1CC[C@H](NC(=O)[C@@H](Cc2ccccc2)NC(=O)C2(NC(=O)c3cc4ccccc4n3C)CCCC2)C1 [Example 13, hydrochloride salt]	1 nM
O=C(NC1(C(=O)N[C@H](Cc2ccccc2)C(=O)NCCC(=O)N2CCN(CC3COCOC3)CC2)CCCC1)c1cc2ccccc2s1 [Example 62, TFA salt]	2 nM
CN(C)[C@H]1CCCC[C@@H]1NC(=O)[C@@H]1CC[C@H](NC(=O)[C@@H](Cc2ccccc2)NC(=O)C2(NC(=O)c3ccc(-c4ccccc4)cc3)CCCC2)C1 [Example 12, hydrochloride salt]	0.316 nM
O=C(NC1(C(=O)N[C@H](Cc2ccccc2)C(=O)NCC2CCN(CC3CCOCC3)CC2)CCCC1)c1cc2cccc(Br)c2s1	0.0398 nM
Cc1ccc(C=CC(=O)NC2(C(=O)NC(Cc3ccccc3)C(=O)NC3CCC(C(=O)NC4CCCCC4N(C)C)C3)CCCC2)cc1 (stereo not drawn) [Example 10, hydrochloride salt]	0.501 nM
NC1CCCCC1NC(=O)C1CCCC(NC(=O)[C@H](Cc2ccccc2)NC(=O)C2(NC(=O)c3cc4ccccc4s3)CCCC2)C1 (stereo partly drawn)	0.0501 nM
N#CCN1CCN(C(=O)CCNC(=O)[C@@H](Cc2ccccc2)NC(=O)C2(NC(=O)c3cc4ccccc4s3)CCCC2)CC1	1 nM
O=C(NC1(C(=O)N[C@H](Cc2ccccc2)C(=O)NCCCN2CCOCC2)CCCC1)c1cc2cc(Cl)ccc2o1	0.501 nM
O=C(NC1(C(=O)N[C@H](Cc2ccccc2)C(=O)NCC2CCN(CC3COCOC3)CC2)CCCC1)c1ccc2cc(Br)ccc2c1	0.126 nM
